# Test system: K-562 leukemia
# testProtocol: NCI-60 one-dose screen, 48 h
# measurementConditions: 10 µM unless noted
# Method: Cells are grown in 96 well plates and exposed to the test compound for 48 hours. Compounds are tested at a single concentration, which is 10^-5 M for most compounds. The reported endpoint is percent growth (GI% or GIPRCNT), where numbers from 0 - 100% represent growth inhibition, and numbers from -100% - 0 represent cell death. For example, a value of 40 represents 60% growth inhibition. A value of 0 means no net growth occurred over the course of the experiment. […]
The panel holds about 83,000 compounds, 20% with a hit somewhere; the sample as a whole holds those more often. Active and inactive are the calls of the source. How the source made its calls: active means growth percent below 10; inactive means the rest.
Outcome field: choose from t (active), f (inactive)

# example entries with known answers
{"columns": ["molecule", "label"],
 "data": [
  ["O=C1C(c2c(O)[nH]c3ncccc23)=Nc2ccccc21", "f"],
  ["COc1cc2c(c(OC)c1OC)CCC(c1cccc(NC(=O)c3cccc(Cl)c3)c1)O2 (configuration not stated)", "f"],
  ["CNc1nc2ncc(-c3c(C)noc3C)cc2n1Cc1ccccc1", "f"]
]}

Query: Lab log entry: CN(C)CC1C(=O)O[C@H]2[C@H]1CC/C(COC(=O)NCc1ccc(Cn3c(=O)sn(CCCI)c3=O)cc1)=C\CC[C@@]1(C)O[C@@H]21 (some centres not stated) — outcome as called in the assay?
Response: t

Query: Look up the recorded call for CN1C(=O)N(C)C2C1NN=c1s/c(=C\c3ccccc3F)c(=O)n12 (configuration not stated) in this test.
Response: t
